Values were extracted from patent US7598279B2.

Tested on: TBPS site of GABA-A receptor
Test: GABA-A receptor (TBPS site) binding assay, [35S]TBPS
Details: 100 μM; rat brain membranes, 2 nM [35S]TBPS
Assign TBPS Inhibition % (At 100 μM) to each entry below.
Supply the numeric figure in %, leaving out any unit text.

Record summary for NC(=O)OC(Cn1nccn1)c1ccccc1Cl (stereo not shown) : reported TBPS Inhibition % (At 100 μM) = 18.3

Record summary for NC(=O)OC(COc1ccc(Cl)c(Cl)c1)Cn1ncnn1 (stereo not shown) : reported TBPS Inhibition % (At 100 μM) = 76.1

Record summary for NC(=O)OC(Cn1nccn1)c1c(Cl)cccc1Cl (stereo not shown) : reported TBPS Inhibition % (At 100 μM) = 23.6

Record summary for CC(C(OC(N)=O)c1ccc(Cl)c(Cl)c1)n1ncnn1 (stereo not shown) : reported TBPS Inhibition % (At 100 μM) = 64.8

Record summary for `NC(=O)O[C@@H](Cn1ncnn1)c1ccc(Cl)c(Cl)c1` : reported TBPS Inhibition % (At 100 μM) = 52.8

Record summary for `NC(=O)O[C@@H](Cn1ccnn1)c1ccc(Cl)cc1Cl` : reported TBPS Inhibition % (At 100 μM) = 42.8

Record summary for O=C(OC(Cn1ncnn1)c1ccccc1Cl)N1CCC(Cc2ccccc2)CC1 (stereo not shown) : reported TBPS Inhibition % (At 100 μM) = 49.6

Record summary for NC(=O)OC(Cn1ncnn1)c1cc(Cl)ccc1Cl (stereo not shown) : reported TBPS Inhibition % (At 100 μM) = 27.6

Record summary for NC(=O)OC(Cn1ncnn1)c1c(Cl)cccc1Cl (stereo not shown) : reported TBPS Inhibition % (At 100 μM) = 29.9

Record summary for `NC(=O)O[C@H](Cn1nccn1)c1ccc(Cl)c(Cl)c1` : reported TBPS Inhibition % (At 100 μM) = 50.1

Record summary for `NC(=O)O[C@@H](Cn1nccn1)c1ccc(Cl)cc1` : reported TBPS Inhibition % (At 100 μM) = 18.9

Record summary for `NC(=O)O[C@@H](Cn1ncnn1)c1c(Cl)cccc1Cl` : reported TBPS Inhibition % (At 100 μM) = 0.3

Record summary for NC(=O)NC(=O)OC(Cn1ncnn1)c1ccccc1Cl (stereo not shown) : reported TBPS Inhibition % (At 100 μM) = 5.6
